Target: Rac GTPase-activating protein 1 (Homo sapiens)
Assay: blockers of MgcRacGAP-driven Rac1 GTP hydrolysis – biochemical, ADP Hunter fluorescence, primary and confirmatory, confirmation (AID 624330);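 note: fluorescence reports GDP produced by GAP-driven GTP hydrolysis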
Conditions: MgcRacGAP-stimulated Rac1 GTP hydrolysis, at 30 µM, active compounds read high, GST-tagged Rac1 F28L mutant substrate
The whole screen tested about 340,000 compounds, of which about 2,100 (0.62%) were called active. Only a sample is shown. Results with a measured potency or affinity are listed apart.
Property label: inhibition (%)
Please give a number only; it is taken to be in %.

Reported Rac GTPase-activating protein 1 (Homo sapiens) inhibition for item O=C(Nc1cccc(Cl)c1Cl)C1CCN(c2ncccn2)CC1 was 7.84

Bench note, Rac GTPase-activating protein 1 (Homo sapiens): CC(C)C(=O)Nc1nnc(NC(=S)Nc2ccccc2)s1 , inhibition reads 1

Record OCCOCCN1CCN(C(=S)Nc2ccccc2)CC1 ; system Rac GTPase-activating protein 1 (Homo sapiens); inhibition = 6.01

Result for COc1cc(/C=N/NC(=O)c2ccccc2O)ccc1OCC(=O)Nc1ccccc1 , tested on Rac GTPase-activating protein 1 (Homo sapiens), inhibition: 14.4

For the molecule CCN(CC)S(=O)(=O)c1ccc(OC)c(NC(=O)c2cn(CC)c3nc(C)ccc3c2=O)c1 , the measured inhibition on Rac GTPase-activating protein 1 (Homo sapiens) was 7.32

Considering CCC(C)[C@H](NC(=O)[C@@H]1Cc2ccccc2CN1)C(=O)Nc1ccc2c(c1)OCO2 (stereo not given in full) , its inhibition with Rac GTPase-activating protein 1 (Homo sapiens) was recorded as -13.9

Record COc1ccccc1-n1c(=O)c2c3c(sc2n2c(SC(C)C)nnc12)CCC3 ; system Rac GTPase-activating protein 1 (Homo sapiens); inhibition = 14.9

Value sought: inhibition, system Rac GTPase-activating protein 1 (Homo sapiens), item CC(C)C(C)NC(=O)CN1C(=O)NC2(CCc3ccccc3C2)C1=O (stereo not given) . Result: 2.87

Readout inhibition for CCOC(=O)CSC1=NC(=O)/C(=C/c2ccc(Br)cc2)S1 , test system Rac GTPase-activating protein 1 (Homo sapiens), was 19.4

The value of inhibition recorded for CCCn1c(SCC(=O)NNC(=O)c2ccccc2)nnc1-c1cccnc1 when tested on Rac GTPase-activating protein 1 (Homo sapiens) reads 12.3

inhibition value, target or system Rac GTPase-activating protein 1 (Homo sapiens), for NS(=O)(=O)c1ccc(NC(=O)CSc2nc3c(c(=O)[nH]2)CCCC3)cc1 : 6.37

Measured inhibition for this entry Cc1ccc(NC2=C([N+](=O)[O-])CS(=O)(=O)C2)cc1 on Rac GTPase-activating protein 1 (Homo sapiens): 7.24

GET /values?item= CC(=O)Nc1ccc(Nc2ccc([N+](=O)[O-])cn2)cc1 &system= Rac GTPase-activating protein 1 (Homo sapiens) returns inhibition: 16.8

Entry COc1ccc(N/C=C/C(=O)C(C)(C)C)cc1 , tested on Rac GTPase-activating protein 1 (Homo sapiens), has a reported inhibition of 16.3

Known value: Rac GTPase-activating protein 1 (Homo sapiens) inhibition of the molecule O=[N+]([O-])c1ccc(Cl)c(S(=O)(=O)/N=C(/c2ccccc2)N2CCOCC2)c1 equals 2.34

Rac GTPase-activating protein 1 (Homo sapiens) inhibition of COc1ccccc1-n1c(=O)c2c3c(sc2n2c(SC)nnc12)CCC3 is 11.3

Value (inhibition, Rac GTPase-activating protein 1 (Homo sapiens)) for record COc1ccc(Cc2nc3c4c(ncn3n2)Oc2c(ccc3ccccc23)C4c2ccc(OC)c(OC)c2)cc1 (stereo not given) = 0.4

Record CCCc1nc2ccccc2c(=O)n1NC(=O)c1c(O)c2ccccc2n(C)c1=O ; system Rac GTPase-activating protein 1 (Homo sapiens); inhibition = -1.3

inhibition value, target or system Rac GTPase-activating protein 1 (Homo sapiens), for Cc1ccc(NC(=O)Cc2nnc(SCC(=O)NC3=NCCS3)n2C)cc1 : 9.68

Observed inhibition on Rac GTPase-activating protein 1 (Homo sapiens), entry O=C(CSc1nc(C(F)(F)F)cc(=O)[nH]1)N1CCCCCC1 , equals -0.68

Entry O=S1c2ccccc2Nc2ccccc21 : inhibition on Rac GTPase-activating protein 1 (Homo sapiens) = 18.2

The molecule O=C(N/N=C\c1ccc(O)c([N+](=O)[O-])c1)c1ccccc1-n1cccc1 , when measured on Rac GTPase-activating protein 1 (Homo sapiens), yielded inhibition of -4.94

The molecule Clc1ccc(N2CCN(c3ncnc4c3oc3ccccc34)CC2)cc1 , tested on Rac GTPase-activating protein 1 (Homo sapiens), showed inhibition of -2.02

I looked up O=S(=O)(c1cccc(-c2nc3ccccc3s2)c1)N1CCCC1 and its inhibition for Rac GTPase-activating protein 1 (Homo sapiens) was 4.17

Known value: Rac GTPase-activating protein 1 (Homo sapiens) inhibition of the molecule O=C(O)CSCC(=O)Nc1ccc(C(=O)O)cc1 equals 7.72

Log: Rac GTPase-activating protein 1 (Homo sapiens), molecule CCC(CC)C(=O)Nc1ccc(C(=O)Nc2cc(C)on2)cc1 , inhibition = 5

Cc1cnc(CNC(=O)c2ccc3oc(C(C)C)nc3c2)[nH]1 tested on Rac GTPase-activating protein 1 (Homo sapiens) gave inhibition: -0.66

Short answer on Rac GTPase-activating protein 1 (Homo sapiens) for CCn1cc(/C=C(\NC(=O)c2ccccc2F)C(=O)N2CCN(C)CC2)c2ccccc21 , inhibition: 19

The molecule O=C(COc1ccccc1-c1ccccc1)N/N=C/c1ccc2ccccc2c1 on Rac GTPase-activating protein 1 (Homo sapiens): inhibition was 6.35

Assay Rac GTPase-activating protein 1 (Homo sapiens), sample Cc1cccc(NC(=O)CSc2nnnn2-c2cccnc2)c1 , inhibition read: 4.2

// inhibition (Rac GTPase-activating protein 1 (Homo sapiens)) for O=C(COC(=O)C1CCCCC1)Nc1ccc(S(=O)(=O)N2CCOCC2)cc1 = -2.69

Summary: CCOc1cc(/C=N/NC(=O)c2cc(C)n(-c3ccc(F)cc3)c2C)ccc1O , Rac GTPase-activating protein 1 (Homo sapiens), inhibition = 16.4

Summary line: COC(=O)c1sc2nc(-c3ccccc3)nc(N3CCN(C)CC3)c2c1C , Rac GTPase-activating protein 1 (Homo sapiens), reported inhibition = 6.27

Entry Cc1ccc(S(=O)(=O)N2CCN(c3nc(CN4CCCC4)nc4sc(C)c(C)c34)CC2)cc1 under Rac GTPase-activating protein 1 (Homo sapiens) had inhibition of 6.41

Record CCOC(=O)CSC1=NC(=O)/C(=C/c2ccc(OC)cc2)S1 / Rac GTPase-activating protein 1 (Homo sapiens), inhibition recorded as 16.1

Bench note, Rac GTPase-activating protein 1 (Homo sapiens): entry COc1cccc2[nH]c3c(Cl)ncnc3c12 , its inhibition = 5.53

Tested system Rac GTPase-activating protein 1 (Homo sapiens); inhibition recorded for CCC(CC)CN1C(Nc2ccccc2)=NC[C@@H]1C was 1.3

Reading of inhibition for O=S(=O)(NCCCN1CCOCC1)c1ccc(Cl)s1 with Rac GTPase-activating protein 1 (Homo sapiens): 1.35

Form field, inhibition with Rac GTPase-activating protein 1 (Homo sapiens), item N#CC1=C(S)N(c2ccc(F)cc2)C(c2cccs2)NC1=O (stereo not given) : 38.9

I looked up O=[N+]([O-])c1ccc(Nc2ccc(F)cc2)nc1 and its inhibition for Rac GTPase-activating protein 1 (Homo sapiens) was 6.73

Field inhibition (system: Rac GTPase-activating protein 1 (Homo sapiens)) for entry Cc1ccc(C(=O)c2c3ccc([N+](=O)[O-])cc3[n+]([O-])n2CCCN)cc1 = 8.83

inhibition of COc1cc2c(cc1OC)CN(CC(=O)Nc1ccccc1C(=O)NC1CC1)CC2 , assay on Rac GTPase-activating protein 1 (Homo sapiens), is -6.05

GET /values?item= COc1ccc(CCNS(=O)(=O)c2cn(C)c(=O)n(C)c2=O)cc1OC &system= Rac GTPase-activating protein 1 (Homo sapiens) returns inhibition: -1.5

// inhibition (Rac GTPase-activating protein 1 (Homo sapiens)) for O=C(NNC(=O)c1cc([N+](=O)[O-])ccc1Cl)c1cccnc1 = 3.49

Entry CC(=O)Nc1ccc(N/C=C/C(=O)C(C)(C)C)cc1 , Rac GTPase-activating protein 1 (Homo sapiens) data, inhibition value: 7.27

The measured values listed here are drawn from PubChem BioAssay AID624330.
